TARGET_SYSTEM: AMP-activated protein kinase, AMPK (Homo sapiens) (UniProt P54646+O43741+P54619+Q9UGJ0+Q9Y478+Q13131+Q9UGI9)
EXPERIMENT_SUMMARY: AMP-dependent Kinase enzyme assay. An in vitro enzyme assay that detects ADP turnover that is directly proportional to AMPK activity. This uses naive AMPK that is activated during the assay with MK-8722
Format: functional
Design: scale not given: direction of the effect not stated beside the values
CONDITIONS: 30 µM
Below is a list of entries, each paired with its recorded Percent Effect value.

- MOLECULE: "CN(C)C(=O)N1CCN(Cc2ccccc2)[C@@H]2CS(=O)(=O)C[C@@H]21"
  UNIT_STRING: "%"
  Percent Effect: -4.73
- MOLECULE: "O=C(C1CC1)N1CCC(c2nc(O)c3c(n2)CCN(C2CCCC2)C3)C1 (configuration not stated)"
  UNIT_STRING: "%"
  Percent Effect: 6.57
- MOLECULE: "CC(=O)N1CCC(Oc2ccc(Cl)cn2)CC1"
  UNIT_STRING: "%"
  Percent Effect: -4.62
- MOLECULE: "O=C(CSc1nncs1)N1CCN(Cc2ccc(Cl)s2)CC1"
  UNIT_STRING: "%"
  Percent Effect: 4.99
- MOLECULE: "Cc1cccc(N2CCN(CCNC(=O)C(C)n3cncn3)CC2)c1 (configuration not stated)"
  UNIT_STRING: "%"
  Percent Effect: -8.42
- MOLECULE: "CO[C@H]1CCN(Cc2cnn(C)c2)[C@@H]2CN(Cc3cccnc3)C[C@H]12"
  UNIT_STRING: "%"
  Percent Effect: 6.27
- MOLECULE: "CN(C)S(=O)(=O)N1CC[C@@H]2CN(Cc3cnn(C)c3)C[C@@H]2C1"
  UNIT_STRING: "%"
  Percent Effect: 26.8
- MOLECULE: "COc1cccc(S(=O)(=O)NC2CNC(=O)C2)c1 (configuration not stated)"
  UNIT_STRING: "%"
  Percent Effect: 3.51
- MOLECULE: "CO[C@H]1CCN(S(=O)(=O)c2cn(C)cn2)[C@H]1Cc1cccnc1"
  UNIT_STRING: "%"
  Percent Effect: -3.32
- MOLECULE: "CC(C)CCN1CCNC(=O)C1CC(=O)N1CCc2sccc2C1 (configuration not stated)"
  UNIT_STRING: "%"
  Percent Effect: 0.663
- MOLECULE: "Cc1cc(C)c(CNC(=O)C2CCCN(c3cnccn3)C2)c(=O)[nH]1 (configuration not stated)"
  UNIT_STRING: "%"
  Percent Effect: -6.83
- MOLECULE: "Cc1ccc2c(n1)N(CCn1cccn1)CCN(C(=O)CC1CC1)C2"
  UNIT_STRING: "%"
  Percent Effect: -9.57
- MOLECULE: "c1cnnc(N2CCCC2CNc2nc3ccccc3o2)c1 (configuration not stated)"
  UNIT_STRING: "%"
  Percent Effect: 3.62
- MOLECULE: "O=C(CC1CC1)N1CCC2(CC1)CN(c1ncccn1)CCO2"
  UNIT_STRING: "%"
  Percent Effect: 5.17
- MOLECULE: "O=C1[C@@H]2CCN(Cc3ccoc3)C[C@@H]2OCCN1Cc1cccnc1"
  UNIT_STRING: "%"
  Percent Effect: 6.25
- MOLECULE: "O=C(Cc1ccc(F)cc1)NCCNCC1CNc2ccnn2C1 (configuration not stated)"
  UNIT_STRING: "%"
  Percent Effect: -4.44
- MOLECULE: "CC(C)c1ccc(CN2CCC3(CCCN(c4nncs4)C3)C2)cc1 (configuration not stated)"
  UNIT_STRING: "%"
  Percent Effect: -2.41
- MOLECULE: "Cc1ccc(NC2CCN(C(=O)CC3CCCO3)CC2)nn1 (configuration not stated)"
  UNIT_STRING: "%"
  Percent Effect: -10.4
- MOLECULE: "Cc1cn(CC(=O)NC2CCN(C(=O)C3CC3)CC2)c2ccccc12"
  UNIT_STRING: "%"
  Percent Effect: -7.57
- MOLECULE: "CCC(C)(NCC(=O)Nc1nc(C)cs1)c1nc(C)cs1 (configuration not stated)"
  UNIT_STRING: "%"
  Percent Effect: -10.8
- MOLECULE: "O=c1cc2c(nn1CN1CCN(c3ccccc3)CC1)CCC2"
  UNIT_STRING: "%"
  Percent Effect: -4.49
- MOLECULE: "Cc1ccc(CN2CCn3c(C(=O)N(C)C)cnc3C2)s1"
  UNIT_STRING: "%"
  Percent Effect: 8.35
- MOLECULE: "c1cc(-c2cnccn2)cc(-c2ccn(CCN3CCCC3)n2)c1"
  UNIT_STRING: "%"
  Percent Effect: 3.09
- MOLECULE: "CCC1CCCCN1C(=O)c1ccc2[nH]nnc2c1 (configuration not stated)"
  UNIT_STRING: "%"
  Percent Effect: -3.81
- MOLECULE: "CC(C)C(=O)NCCNc1nccc(-c2cc(C(=O)O)ccn2)n1"
  UNIT_STRING: "%"
  Percent Effect: -3.6
- MOLECULE: "CNC(=O)C1CCN(C(=O)c2ccn(-c3ccc(F)cc3)n2)CC1"
  UNIT_STRING: "%"
  Percent Effect: 1.73
- MOLECULE: "Cc1cc(NC(=O)c2nc(N3CCCC3)ncc2Cl)nc(C(C)C)n1"
  UNIT_STRING: "%"
  Percent Effect: -5.04
- MOLECULE: "CC(O)CN1CCN(C(=O)c2ccc(Cn3cccn3)cc2)CC1 (configuration not stated)"
  UNIT_STRING: "%"
  Percent Effect: -8.57
- MOLECULE: "Cc1nc(C)n(CC2CCCN(Cc3cccc(C#N)c3)C2)n1 (configuration not stated)"
  UNIT_STRING: "%"
  Percent Effect: -7.23
- MOLECULE: "CCNC(=O)N1CCCCC1CCNS(C)(=O)=O (configuration not stated)"
  UNIT_STRING: "%"
  Percent Effect: -3.93
- MOLECULE: "CC(CNC(=O)c1ccc(Cl)cc1I)N1CCCC1 (configuration not stated)"
  UNIT_STRING: "%"
  Percent Effect: -6.38
- MOLECULE: "O=C(NCCc1ccncc1)C1CCN(Cc2ccco2)CC1"
  UNIT_STRING: "%"
  Percent Effect: -2.38
- MOLECULE: "CCCN1C(=O)CC(N2CCN(c3ccc(F)cc3)CC2)C1=O (configuration not stated)"
  UNIT_STRING: "%"
  Percent Effect: 5.3
- MOLECULE: "Cc1ccsc1CNc1cc(N2CCCC2CO)ncn1 (configuration not stated)"
  UNIT_STRING: "%"
  Percent Effect: -19.2
- MOLECULE: "Cc1cc(NC(=O)C(c2cccc(F)c2)N2CCOCC2)ccn1 (configuration not stated)"
  UNIT_STRING: "%"
  Percent Effect: 2.55
- MOLECULE: "Cc1n[nH]cc1C(=O)N1CCCC(n2nnc3cc(F)ccc32)C1 (configuration not stated)"
  UNIT_STRING: "%"
  Percent Effect: 7.57
- MOLECULE: "CCOc1nnc(CN(C)C2CCCN(c3cccnn3)C2)s1 (configuration not stated)"
  UNIT_STRING: "%"
  Percent Effect: -2.62
- MOLECULE: "CCCS(=O)(=O)N1CCC(NC(=O)c2cc(C)c(CC)s2)CC1"
  UNIT_STRING: "%"
  Percent Effect: -3.07
- MOLECULE: "Cc1ccc(NS(=O)(=O)c2cc3c(c(C(=O)O)c2)OCCO3)c(F)c1"
  UNIT_STRING: "%"
  Percent Effect: -8.4
- MOLECULE: "CC(C)(O)CN1CCN(C(=O)c2cc3ccccc3c(=O)[nH]2)CC1"
  UNIT_STRING: "%"
  Percent Effect: 5.98
- MOLECULE: "Cc1cccc(CN2CCC3(CCCN(C(=O)c4ccsc4)C3)C2=O)n1 (configuration not stated)"
  UNIT_STRING: "%"
  Percent Effect: 10.5
- MOLECULE: "Cc1nc(C)n(C2CCCN(C(=O)c3cnc[nH]3)C2)n1 (configuration not stated)"
  UNIT_STRING: "%"
  Percent Effect: -9.26
- MOLECULE: "CCCS(=O)(=O)N1CCC2(CN(c3ccsc3)C(=O)CN2C)C1 (configuration not stated)"
  UNIT_STRING: "%"
  Percent Effect: -1
- MOLECULE: "Cc1ccc(C(=O)O)cc1S(=O)(=O)Nc1nn(-c2ccccc2)cc1C"
  UNIT_STRING: "%"
  Percent Effect: 9.77
- MOLECULE: "O=C(NCCOc1ccc2c(c1)OCO2)C1CC(=O)N(CC2CC2)C1 (configuration not stated)"
  UNIT_STRING: "%"
  Percent Effect: 1.65
- MOLECULE: "CCN1CCC(NC(=O)CN2CCCC2Cn2nc(C)cc2C)CC1 (configuration not stated)"
  UNIT_STRING: "%"
  Percent Effect: -2.56
- MOLECULE: "NC(=O)C1CCN(C(=O)NCc2ccccc2Cn2cncn2)CC1"
  UNIT_STRING: "%"
  Percent Effect: 4.01

Each recorded value in this set is attributed to ChEMBL document CHEMBL3988442.
